Reported values of INHIBITION for individual entries
Tested on: Plasmodium berghei
Test: Screen against P. berghei liver stage (PbLuc), transformed with Luciferase, at 10uM
Format: functional, HepG2
Conditions: tested at 10 uM
In all, about 69,000 compounds went through this assay and about 8,600 (12%) showed an effect of 50% or more. For the sample, strong results were picked, then their nearest neighbours and some compounds at random.
quantity: INHIBITION (%)

{"columns": ["compound", "quantity", "experimental result"],
 "data": [
  ["Cc1ccc(-c2nc(CN3CCCC3Cn3cncn3)cs2)o1 (stereo not drawn)", "INHIBITION", -15.5],
  ["OC1(c2ccc(F)cc2)CCN(Cc2ccccc2N2CCCC2)CC1", "INHIBITION", 43.4],
  ["CCC(CNC(=O)c1cccc(S(=O)(=O)NC)c1)N1CCCC1 (stereo not drawn)", "INHIBITION", 18],
  ["O=C(C[C@@H]1COC[C@H]2CN(CC3CCOCC3)C[C@@H]12)N1CCCCO1", "INHIBITION", 76.4],
  ["Cc1ccc(CNC(=O)c2ccc(F)cc2)o1", "INHIBITION", 0.868],
  ["O=C(C[C@@H]1COC[C@H]2CN(C3CCCC3)C[C@@H]12)N1CCCCO1", "INHIBITION", 57.1],
  ["O=C(CCn1ccnc1)N1CC[C@H](Oc2ccc(F)cc2)[C@@H](O)CC1", "INHIBITION", 32.05],
  ["c1cnc2[nH]c(C3CCNCC3)c(CN3CCOCC3)c2c1", "INHIBITION", 6.32]
]}

Just for reference, ChEMBL document CHEMBL4513216 is where these values come from.
